Test system: NCI-H522 lung
Test: NCI-60 one-dose screen, 48 h
Details: 10 µM unless noted
Experimental: Growth inhibition of the NCI-H522 human Non-Small Cell Lung tumor cell line is measured as a screen for anti-cancer activity. Cells are grown in 96 well plates and exposed to the test compound for 48 hours. Compounds are tested at a single concentration, which is 10^-5 M for most compounds. The reported endpoint is percent growth (GI% or GIPRCNT), where numbers from 0 - 100% represent growth inhibition, and numbers from -100% - 0 represent cell death. […]
The panel holds about 83,000 compounds, 20% with a hit somewhere; the sample as a whole holds those more often. The source made the active and inactive calls. Rule for the calls: active = growth percent below 10; inactive = the rest.
Labels: active, inactive

INSERT INTO assay_data (compound, qualitative_label) VALUES
  ('Cc1ccc(S(=O)(=O)n2cc(C(=O)C(=O)Nc3ccncc3)c3ccccc32)cc1', 'active'),
  ('CCN(CC)CCC(CNc1ccnc2cc(Cl)ccc12)c1ccc(Cl)cc1 (centres undefined)', 'active'),
  ('COc1ccc(C2=CC(c3cc(OC)c(OC)c(OC)c3)NC(=O)N2)cc1OC (centres undefined)', 'active'),
  ('COc1cc(/C=C/C(=O)/C=C/c2cc(OC)c3c(c2)OCO3)cc2c1OCO2', 'inactive'),
  ('C/C=C/C1=CN2C(=O)c3cc(OC4OC(C)C(NC)C(C)(O)C4O)c(C)cc3N=C[C@@H]2C1 (some centres undefined)', 'active'),
  ('O=C1/C(=C/c2ccccc2)CN(C(=O)CCN2CCC(=NO)CC2)C/C1=C\c1ccccc1', 'active'),
  ('C=C[C@@H]1C[C@@H]2Cc3cc(F)ccc3N1O2', 'inactive'),
  ('COc1ccc(/C=C\c2cc(OC)c(OC)c(OC)c2)cc1OC(=O)c1cccc(Cn2cc(CCOC(=O)c3cccc(Cn4nnc5c4C(=O)c4ccccc4C5=O)c3)nn2)c1', 'active'),
  ('COc1c2occc2c(OC)c2c(=O)c(-c3cc(-c4ccc(F)cc4)c(C#N)c(N)n3)c(C)oc12', 'inactive'),
  ('COc1cc(-c2nn(-c3cccc(NC(=O)c4cccc(C(F)(F)F)c4)c3)cc2-c2ccncc2)ccc1Cl', 'active'),
  ('CCNc1nc(S(=O)(=O)CC)nc2ccccc12', 'inactive'),
  ('COc1ccc(NC(=O)CSc2nc(-c3ccc(OC)c(OC)c3)cc(-c3cc(OC)c(OC)c(OC)c3)n2)cc1', 'inactive'),
  ('Brc1ccc(-c2[nH]ncc2-c2c[nH]c3ccccc23)cc1', 'inactive'),
  ('CC(=O)OC[C@]12CC[C@H]3[C@@H](C[C@H]4O[C@]45CC=CC(=O)[C@]35C)[C@]1(O)CC[C@@]2(O)[C@@](C)(O)C1CC(C)=C(C)C(=O)O1 (some centres undefined)', 'active'),
  ('O=C1NN(C(=O)c2ccc(Cl)cc2)C(c2ccccc2)=N/C1=C\c1cn(-c2ccccc2)nc1-c1ccccc1', 'inactive'),
  ('COc1cc2c(c(OC)c1OC)-c1ccc(N)c(=O)cc1[C@@H](NC(C)=O)CC2', 'active'),
  ('O=C(O)Cc1cccc(=O)c(O)c1C(=O)O', 'inactive'),
  ('CN(C)CCCC(C#N)c1ccccc1 (centres undefined)', 'inactive'),
  ('CCCCCCCCCCCCNC(=O)[C@H]1CSC(c2cc3ccccc3s2)N1 (some centres undefined)', 'inactive'),
  ('O=[N+]([O-])c1cc(S(=O)(=O)Oc2ccccc2)ccc1Cl', 'inactive'),
  ('Cc1ccc(S(=O)(=O)c2nc(-c3ccccc3)oc2S(C)(=O)=O)cc1', 'active'),
  ('COc1cc(C2CC(c3ccc4c(c3)OCO4)=NN2C=O)cc(OC)c1OC (centres undefined)', 'active'),
  ('COc1cc(C(=O)/C=C/c2c(C)n([O-])c3ccc(C(F)(F)F)cc3[n+]2=O)cc(OC)c1OC', 'active'),
  ('CC(=O)Nc1ccc(S(=O)(=O)n2ccc(-c3ccc4c(c3)CCC(C)(C)O4)n2)cc1', 'inactive'),
  ('Nc1cccc(-c2nc3sccn3c2-c2ccnc(NCCCNS(=O)(=O)c3cccc4ccccc34)n2)c1', 'inactive'),
  ('COc1cc(C2C3=C(COC3=O)Nc3cc4c(cc32)CCC4)cc2c1OCO2 (centres undefined)', 'active'),
  ('CCN(CC)CCC(CNc1c2ccc(Cl)cc2nc2ccc(OC)cc12)c1ccccc1 (centres undefined)', 'active'),
  ('N=c1ccc2nc3ccc(N)cc3sc-2c1', 'inactive'),
  ('COc1ccc(-c2nc(N3CCCC3=O)sc2Br)cc1OC', 'inactive');
